All values here come from patent US20240376097A1.

target: recombinant human Bcl-2 D103Y protein (Homo sapiens (Human), UniProt P10415, D103Y); test: Bcl-2-D103Y Biochemical Assay (TR-FRET); details: TR-FRET, FITC labeled Bak peptide
Sequence (P10415 whole entry D103Y): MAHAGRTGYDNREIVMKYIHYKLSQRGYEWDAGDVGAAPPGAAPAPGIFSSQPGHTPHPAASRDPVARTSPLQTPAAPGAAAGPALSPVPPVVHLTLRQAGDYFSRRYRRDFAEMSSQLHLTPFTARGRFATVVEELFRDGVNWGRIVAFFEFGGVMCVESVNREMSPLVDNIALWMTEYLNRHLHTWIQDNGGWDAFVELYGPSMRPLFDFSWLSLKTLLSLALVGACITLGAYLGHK
This section presents molecules with their documented pIC50 values.
Note: pIC50 values are expressed as the negative base-10 logarithm of concentration in M.

compound structure string: COc1cc(CN2CCN(C3CC4(C3)CN(c3ccc(C(=O)NS(=O)(=O)c5ccc(NC[C@H]6CC[C@](C)(O)CC6)c([N+](=O)[O-])c5)c(Oc5cnc6[nH]cc(F)c6c5)c3)C4)[C@H](c3ccccc3C(C)C)C2)ccc1OC1CCC1
numeric readout: 9.19

Query :: Provide measured pIC50 value, entry: COc1ccc(CN2CCN(C3CC4(CCN(c5ccc(C(=O)NS(=O)(=O)c6ccc(NC[C@H]7CC[C@](C)(O)CC7)c([N+](=O)[O-])c6)c(Oc6cnc7[nH]ccc7c6)c5)CC4)C3)[C@H](c3ccccc3C(C)C)C2)cn1
Result :: 10.30

----------
# maps each entry to its pIC50
target: recombinant human Bcl-2 D103Y protein (Homo sapiens (Human), UniProt P10415, D103Y); assay: Bcl-2-D103Y Biochemical Assay (TR-FRET); details: TR-FRET, FITC labeled Bak peptide
Remember, pIC50 is on a log scale: it is -log10 of the molar concentration.

Query :: Give the measured pIC50 for CC(C)c1ccccc1[C@@H]1CN(Cc2cccc3c2OCCO3)CCN1C1CC2(CCN(c3ccc(C(=O)NS(=O)(=O)c4ccc(NC[C@H]5CC[C@](C)(O)CC5)c([N+](=O)[O-])c4)c(Oc4cnc5[nH]ccc5c4)c3)CC2)C1 [Example 79a]
Result :: 9.70

----------
experiment: Metabolic Stability Study, liver microsome incubation (mouse); type: in vitro ADME; conditions: mouse liver microsomes 0.5 mg/mL, 1 μM compound, NADPH; read-out: CLint (μL × min^−1 × mg^−1) mouse
A collection of compounds and their measured microsomal CLint at 1 μM
Please reply with the bare figure in µL/min/mg and do not write the unit itself.

compound structure string: COc1cc(CN2CCN(C3CC4(C3)CN(c3ccc(C(=O)NS(=O)(=O)c5ccc(NC[C@H]6CC[C@](C)(O)CC6)c([N+](=O)[O-])c5)c(Oc5cnc6[nH]cc(F)c6c5)c3)C4)[C@H](c3ccccc3C(C)C)C2)ccc1C
unit string: µL/min/mg
numeric readout: 4.8

compound structure string: [2H]C([2H])([2H])Oc1ccc(CN2CCN(C3CC4(CCN(c5ccc(C(=O)NS(=O)(=O)c6ccc(NC[C@H]7CC[C@](C)(O)CC7)c([N+](=O)[O-])c6)c(Oc6cnc7[nH]cc(F)c7c6)c5)CC4)C3)[C@H](c3ccccc3C(C)C)C2)cc1OC([2H])([2H])[2H]
unit string: µL/min/mg
numeric readout: 6.3

Now take the following compound into account.
Query :: Answer with the recorded microsomal CLint at 1 μM for the compound listed here: COc1ccc(CN2CCN(C3CC4(CCN(c5ccc(C(=O)NS(=O)(=O)c6ccc(NC[C@H]7CC[C@](C)(O)CC7)c([N+](=O)[O-])c6)c(Oc6cnc7[nH]cc(F)c7c6)c5)CC4)C3)[C@H](c3ccccc3C(C)C)C2)cc1OC
Result :: 7.63

----------
molecular target: Recombinant human Bcl-2 protein (Homo sapiens (Human)); assay: Bcl-2 TR-FRET Assay; assay type: binding; conditions: wild type Bcl-2; unit inferred; read-out: Bcl-2 WT
recorded endpoint: IC50 (nM)
Give just the numeric value; nM need not be written.

Look over these answered cases.
molecule: COc1cc(CN2CCN(C3CC4(C3)CN(c3ccc(C(=O)NS(=O)(=O)c5ccc(NCC6CCOCC6)c([N+](=O)[O-])c5)c(Oc5cnc6[nH]cc(F)c6c5)c3)C4)[C@H](c3ccccc3C(C)C)C2)ccc1C1CC1 [Example 320]
IC50 [nM]: 0.55
//
molecule: CC(C)c1ccccc1C1CN(Cc2ccc3c(c2)OCCO3)CCN1C1CC2(CCN(c3ccc(C(=O)NS(=O)(=O)c4ccc(NC[C@H]5CC[C@](C)(O)CC5)c([N+](=O)[O-])c4)c(Oc4cnc5[nH]ccc5c4)c3)CC2)C1 (stereo partly shown) [Example 78]
IC50 [nM]: 0.21
//
molecule: CC(C)c1ccccc1C1CN(Cc2cnn(C)c2)CCN1C1CC2(CCN(c3ccc(C(=O)NS(=O)(=O)c4ccc(NC[C@H]5CC[C@](C)(O)CC5)c([N+](=O)[O-])c4)c(Oc4cnc5[nH]ccc5c4)c3)CC2)C1 (stereo partly shown) [Example 22]
IC50 [nM]: 0.013
//
molecule: COc1cc(CN2CCN(C3CC4(C3)CN(c3ccc(C(=O)NS(=O)(=O)c5ccc(NC[C@H]6CC[C@](C)(O)CC6)c([N+](=O)[O-])c5)c(Oc5cnc6[nH]cc(F)c6c5)c3)C4)[C@H](c3ccccc3C(C)C)C2)ccc1C [Example 274]
IC50 [nM]: 0.55
//
molecule: COc1cc(CN2CCN(C3CC4(C3)CN(c3ccc(C(=O)NS(=O)(=O)c5ccc(NC[C@H]6CC[C@](C)(O)CC6)c([N+](=O)[O-])c5)c(Oc5cnc6[nH]cc(F)c6c5)c3)C4)[C@H](c3ccccc3C(C)C)C2)cc2c1OCCCC2 [Example 347]
IC50 [nM]: 0.2

Query :: Identify measured IC50 associated with COc1cccc(CN2CCN(C3CC4(CCN(c5ccc(C(=O)NS(=O)(=O)c6cc7c(c([N+](=O)[O-])c6)N[C@H](C[C@H]6CC[C@H](O)CC6)CO7)c(Oc6cnc7[nH]ccc7c6)c5)CC4)C3)C(c3ccccc3C(C)C)C2)c1 (stereo partly shown) [Example 45]
Result :: 0.24

Query :: Indicate its recorded IC50; the molecule in question is CC(C)c1ccccc1[C@@H]1CN(Cc2ccc(C3COC3)cc2)CCN1C1CC2(C1)CN(c1ccc(C(=O)NS(=O)(=O)c3ccc(NC[C@H]4CC[C@](C)(O)CC4)c([N+](=O)[O-])c3)c(Oc3cnc4[nH]cc(F)c4c3)c1)C2 [Example 362]
Result :: 0.069

----------
target: Recombinant human Bcl-2 protein (Homo sapiens (Human), UniProt P10415); test: Bcl-2 TR-FRET Assay; type: binding; conditions: Bcl-2 wild type, TR-FRET; read-out: Biochemical assay (IC50, nM) Bcl-2 WT
Sequence (P10415 whole entry): as the sequence (P10415 whole entry D103Y) above, with Y103D counted along it
recorded endpoint: log10 IC50 (log10 of the value in nM)
Give log10 of IC50, with IC50 taken in nM.

Sample answers from the record:
compound: COc1cc(CN2CCN(C3CC4(C3)CN(c3ccc(C(=O)NS(=O)(=O)c5ccc(NC[C@H]6CC[C@](C)(O)CC6)c([N+](=O)[O-])c5)c(Oc5cnc6[nH]ccc6c5)c3)C4)[C@H](c3ccccc3C(C)C)C2)cc(F)c1OC
log10 IC50: -0.89
//
compound: CC(C)c1ccccc1C1CN(Cc2ccc(C#N)cc2)CCN1C1CC2(CCN(c3ccc(C(=O)NS(=O)(=O)c4ccc(NC[C@H]5CC[C@](C)(O)CC5)c([N+](=O)[O-])c4)c(Oc4cnc5[nH]ccc5c4)c3)CC2)C1 (stereo partly drawn)
log10 IC50: -0.39
//
compound: CC(C)c1ccccc1C1CN(Cc2ccc(C(F)(F)F)cc2)CCN1C1CC2(CCN(c3ccc(C(=O)NS(=O)(=O)c4ccc(NC[C@H]5CC[C@](C)(O)CC5)c([N+](=O)[O-])c4)c(Oc4cnc5[nH]ccc5c4)c3)CC2)C1 (stereo partly drawn)
log10 IC50: -0.08
//
compound: CC(C)c1ccccc1C1CN(Cc2ccc(N(C)C)cc2)CCN1C1CC2(CCN(c3ccc(C(=O)NS(=O)(=O)c4ccc(NC[C@H]5CC[C@](C)(O)CC5)c([N+](=O)[O-])c4)c(Oc4cnc5[nH]ccc5c4)c3)CC2)C1 (stereo partly drawn)
log10 IC50: -0.92
//
compound: CC(C)c1ccccc1C1CN(Cc2cccc(OC3CC3)c2)CCN1C1CC2(CCN(c3ccc(C(=O)NS(=O)(=O)c4ccc(NC[C@H]5CC[C@](C)(O)CC5)c([N+](=O)[O-])c4)c(Oc4cnc5[nH]ccc5c4)c3)CC2)C1 (stereo partly drawn)
log10 IC50: -0.28
//
compound: COc1cc(CN2CCN(C3CC4(CCN(c5ccc(C(=O)NS(=O)(=O)c6ccc(NC[C@H]7CC[C@](C)(O)CC7)c([N+](=O)[O-])c6)c(Oc6cnc7[nH]cc(F)c7c6)c5)CC4)C3)[C@H](c3ccccc3C(C)C)C2)cc2c1OCC2
log10 IC50: -0.96
//
compound: CC(C)c1ccccc1C1CN(Cc2cccc3ccoc23)CCN1C1CC2(CCN(c3ccc(C(=O)NS(=O)(=O)c4ccc(NC[C@H]5CC[C@](C)(O)CC5)c([N+](=O)[O-])c4)c(Oc4cnc5[nH]ccc5c4)c3)CC2)C1 (stereo partly drawn)
log10 IC50: -0.21
//
compound: CC(C)c1ccccc1C1CN(S(C)(=O)=O)CCN1C1CC2(CCN(c3ccc(C(=O)NS(=O)(=O)c4ccc(NC[C@H]5CC[C@](C)(O)CC5)c([N+](=O)[O-])c4)c(Oc4cnc5[nH]ccc5c4)c3)CC2)C1 (stereo partly drawn)
log10 IC50: -1.47

Now for the compound whose log10 IC50 we want.
Query :: Indicate its recorded log10 IC50; the compound in question is CCOc1ccc(CN2CCN(C3CC4(CCN(c5ccc(C(=O)NS(=O)(=O)c6ccc(NC[C@H]7CC[C@](C)(O)CC7)c([N+](=O)[O-])c6)c(Oc6cnc7[nH]ccc7c6)c5)CC4)C3)C(c3ccccc3C(C)C)C2)cc1 (stereo partly drawn)
Result :: -0.72
